test_system: CYP2B6 (Homo sapiens)
Sequence (P20813 whole entry): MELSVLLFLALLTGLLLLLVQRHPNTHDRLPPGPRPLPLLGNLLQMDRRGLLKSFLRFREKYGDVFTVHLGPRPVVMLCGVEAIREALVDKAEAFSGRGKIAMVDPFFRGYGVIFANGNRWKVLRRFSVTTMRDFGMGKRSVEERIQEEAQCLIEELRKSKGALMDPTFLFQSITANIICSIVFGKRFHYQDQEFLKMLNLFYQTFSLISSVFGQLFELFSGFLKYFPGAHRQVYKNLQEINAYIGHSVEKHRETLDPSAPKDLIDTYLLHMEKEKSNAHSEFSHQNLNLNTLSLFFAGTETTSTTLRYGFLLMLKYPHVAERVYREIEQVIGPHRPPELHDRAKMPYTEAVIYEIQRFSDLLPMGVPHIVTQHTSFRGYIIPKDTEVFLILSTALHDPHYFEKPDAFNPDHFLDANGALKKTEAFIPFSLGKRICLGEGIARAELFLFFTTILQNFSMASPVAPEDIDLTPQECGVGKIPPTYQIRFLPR
assay_protocol: Supersome CYP2B6 kinetic incubations
Format: in vitro ADME
Set-up: purchased Corning (Amsterdam, The Netherlands); host or cells: baculovirus-transfected insect cells
measurement_context: human, recombinant CYP2B6 Supersomes, pH 7.4, Km(app), Pathway 1 (bioactivation of CPF to CPO); Supersome CYP2B6
property_name: Km (µM)
Answer format: numeric, µM implied, no suffix.

Answer with Km of CCOP(=S)(OCC)Oc1nc(Cl)c(Cl)cc1Cl measured for CYP2B6 (Homo sapiens). 0.14

----------
test_system: CYP1A2 (Homo sapiens)
assay_protocol: Supersome CYP1A2 kinetic incubations
Type: in vitro ADME
Design: purchased Corning (Amsterdam, The Netherlands); host or cells: baculovirus-transfected insect cells
measurement_context: human, recombinant CYP1A2 Supersomes, pH 7.4, Km(app), Pathway 2 (detoxification of CPF to TCPy); Supersome CYP1A2
property_name: Km (µM)
Answer format: numeric, µM implied, no suffix.

Indicate the recorded Km value for this molecule: CCOP(=S)(OCC)Oc1nc(Cl)c(Cl)cc1Cl [CPF, Chlorpyrifos] 1.25

----------
test_system: CYP1A2 (Homo sapiens, UniProt P05177)
Sequence (P05177 2-516 limits assumed): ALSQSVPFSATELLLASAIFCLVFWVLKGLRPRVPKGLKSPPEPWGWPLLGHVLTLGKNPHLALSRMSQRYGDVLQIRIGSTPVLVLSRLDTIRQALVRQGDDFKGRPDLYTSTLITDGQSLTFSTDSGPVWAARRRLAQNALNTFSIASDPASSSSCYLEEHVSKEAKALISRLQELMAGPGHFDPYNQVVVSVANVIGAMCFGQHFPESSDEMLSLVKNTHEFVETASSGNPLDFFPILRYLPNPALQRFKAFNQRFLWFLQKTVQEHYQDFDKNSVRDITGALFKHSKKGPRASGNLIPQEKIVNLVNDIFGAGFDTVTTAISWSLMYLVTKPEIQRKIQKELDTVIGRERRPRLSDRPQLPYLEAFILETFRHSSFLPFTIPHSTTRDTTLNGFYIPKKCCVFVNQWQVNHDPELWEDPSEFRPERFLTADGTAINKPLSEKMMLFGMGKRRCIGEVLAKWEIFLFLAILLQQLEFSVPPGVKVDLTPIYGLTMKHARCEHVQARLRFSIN
assay_protocol: Supersome CYP1A2 kinetic incubations
Type: in vitro ADME
Set-up: purchased Corning (Amsterdam, The Netherlands); host or cells: baculovirus-transfected insect cells
measurement_context: human, recombinant CYP1A2 Supersomes, pH 7.4, Km(app), Pathway 1 (bioactivation of CPF to CPO); Supersome CYP1A2
Protocol: […] To normalize for differences in intrinsic CYP activity between Supersome™ and pooled HLMs and enable scaling of the activities to the in vivo situation, CYP-specific ISEF values need to be established. […] The samples obtained were analyzed by UPLC-PDA for acetaminophen, 4-hydroxymephenytoin, and 6β-hydroxytestosterone formation catalyzed by 1A2, 2C19 and 3A4, or LC–MS/MS for (±)-hydroxybupropion formation catalyzed by 2B6. […]
property_name: Km (µM)
Answer format: numeric, µM implied, no suffix.

Indicate the recorded Km value for this compound: CCOP(=S)(OCC)Oc1nc(Cl)c(Cl)cc1Cl 0.61

Source of measurements: paper PMC9013686
